# refractive index per entry
Assay: refractive index (Na D-line) (dimensionless)
Conditions: 313.15 K; 101.33 kPa; Liquid; Standard Abbe refractometry
Quick one: just the number, no unit, thanks!

Solved cases below.
{"COMPOUND": "O=C1CCCCC1 [cyclohexanone]", "refractive index": 1.442}
{"COMPOUND": "CC(=O)c1ccccc1 [acetophenone]", "refractive index": 1.525}

refractive index recorded for this compound, CCOC(=O)C(=O)OCC [diethyl ethanedioate] , is 1.402

refractive index recorded for this compound, O=C1CCCC1 [cyclopentanone] , is 1.429

refractive index recorded for this compound, CCC(=O)CC [pentan-3-one] , is 1.3835
